Measurement target: Bovine lens aldose reductase (Bos taurus, UniProt P16116)
Construct: Bovine lens aldose reductase was separated and partially purified; from tissue; host or cells: bovine lens
Assay info: Inhibition of Aldose reductase
Type: biochemical
Test settings: read-out: Inhibition at 5 μg/ml
Description: Bovine lens aldose reductase was separated and partially purified by the method of S. Hyman and J. H. Kinoshita [J. Biol. Chem., 240, 877 (1965)] and K. Inagaki, I. Miwa and J. Okuda [Arch. Biochem. Biophys., 316, 337 (1982)], and its activity was determined photometrically by the method of Varma et al. [Biochem. Pharmac., 25, 2505 (1976)]. […]
Measured attribute: inhibition at 5 µg/mL (%)
Answers are plain numbers, in %.

The cases that follow already have their inhibition at 5 µg/mL on record.
Compound: Cn1c(CCCOc2ccc(CC3SC(=O)NC3=O)cc2)nc2cccnc21 (centres unmarked)
inhibition at 5 µg/mL (%): 53.9
--
Compound: Cn1c(COc2ccc(CC3SC(=O)NC3=O)cc2)nc2cc(Cl)cnc21 (centres unmarked)
inhibition at 5 µg/mL (%): 94.9
--
Compound: O=C1NC(=O)C(Cc2ccc(OCC3Cc4ccccc4N3)cc2)S1 (centres unmarked)
inhibition at 5 µg/mL (%): 54.5
--
Compound: Cc1ccnc2c1nc(COc1ccc(CC3SC(=O)NC3=O)cc1)n2C (centres unmarked)
inhibition at 5 µg/mL (%): 59.1

Now examine the next entry.
inhibition at 5 µg/mL recorded for this compound, O=C1NC(=O)C(Cc2ccc(OCc3nc4cccnc4n3Cc3ccc(Cl)cc3)cc2)S1 (centres unmarked) , is 61.6
